Target under test: human FSH receptor (Homo sapiens)
Sequence (P23945 18-695): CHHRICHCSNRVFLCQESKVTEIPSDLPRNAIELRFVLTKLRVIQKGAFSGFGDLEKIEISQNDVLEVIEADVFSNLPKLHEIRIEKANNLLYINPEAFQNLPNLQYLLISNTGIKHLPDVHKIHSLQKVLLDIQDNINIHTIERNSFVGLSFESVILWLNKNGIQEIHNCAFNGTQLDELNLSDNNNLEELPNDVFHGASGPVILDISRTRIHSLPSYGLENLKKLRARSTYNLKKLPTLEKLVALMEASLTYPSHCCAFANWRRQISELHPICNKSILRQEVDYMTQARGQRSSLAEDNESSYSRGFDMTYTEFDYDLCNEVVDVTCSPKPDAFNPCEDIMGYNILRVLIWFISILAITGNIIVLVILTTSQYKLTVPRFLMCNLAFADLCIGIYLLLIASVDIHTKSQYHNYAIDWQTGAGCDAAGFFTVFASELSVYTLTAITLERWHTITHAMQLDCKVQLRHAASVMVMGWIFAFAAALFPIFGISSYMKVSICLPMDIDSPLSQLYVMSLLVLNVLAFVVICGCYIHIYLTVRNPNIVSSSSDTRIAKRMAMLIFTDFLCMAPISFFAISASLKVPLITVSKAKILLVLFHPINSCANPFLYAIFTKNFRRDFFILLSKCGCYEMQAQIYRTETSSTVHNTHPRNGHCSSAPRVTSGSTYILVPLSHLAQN
Assay explanation: HTRF assay for measuring cAMP in cells (FSH antagonism)
Settings: FSH-antagonistic effect; CHO cells stably transfected with the human FSH receptor (hFSHR clone 16); in the presence of 1 e-9 mol/l hFSH; 37°C for 2h
Procedure: HTRF assay for measuring cAMP in cells The method is based on a competitive immunoassay between native cAMP, which has been produced by the cells, and cAMP which is labelled with XL665. The tracer binding was visualized by a monoclonal antibody, anti-cAMP labelled with cryptate [HTRF = homogeneous time-resolved fluorescence]. The specific signal is inversely proportional to the cAMP concentration of the samples employed. The 665nm/ 620nm fluorescence ratio was evaluated. […]
Give IC50 for every item shown.
Just the number please, in nM, no unit attached.

Query: Write down IC50 measured for item CNC(=O)c1ccc(-c2ccc(OC(C)C)c(C(=O)NC3(CO)CCc4[nH]c5ccc(F)cc5c4C3)c2)cc1Cl (stereo not shown)
Result: 70

Query: Write down IC50 measured for item COc1ccc2nc(-c3ccccc3)cc(C(=O)NC3(CO)CCc4[nH]c5cc(Cl)c(F)cc5c4C3)c2c1 (stereo not shown)
Result: 8000

Query: Write down IC50 measured for item Cc1ccc2[nH]c3c(c2c1Cl)CC(CO)(NC(=O)c1cc(-c2cc4ccccc4o2)ccc1OC(C)C)CC3 (stereo not shown)
Result: 750

Query: Write down IC50 measured for item CNC(=O)c1ccc(-c2ccc(OC(C)C)c(C(=O)NC3(CO)CCc4[nH]c5c(Cl)ccc(Cl)c5c4C3)c2)cc1Cl (stereo not shown)
Result: 900

----------
Target under test: UniProt P23945
Assay explanation: HTRF assay for measuring cAMP in cells (FSH antagonism)
Settings: FSH-antagonistic effect; CHO cells stably transfected with the human FSH receptor (hFSHR clone 16); in the presence of 1 e-9 mol/l hFSH; 37°C for 2h
Measured property: pIC50
Quick note: pIC50 values are minus log10 of concentrations in mol/L.

Query: Write down pIC50 measured for item COc1ccc(-c2ccc(OC(C)C)c(C(=O)NC3(CO)CCc4[nH]c5c(C)ccc(C)c5c4C3)c2)cc1OC (stereo not shown)
Result: 5.40

Query: Write down pIC50 measured for item CNC(=O)c1ccc(-c2ccc(OC(C)C)c(C(=O)NC3(CO)CCc4[nH]c5ccc(Cl)cc5c4C3)c2)cc1Cl (stereo not shown)
Result: 5.82

Query: Write down pIC50 measured for item CNC(=O)c1ccc(-c2ccc(OC(C)C)c(C(=O)NC3(CO)CCc4[nH]c5ccc(C)cc5c4C3)c2)cc1Cl (stereo not shown)
Result: 5.52

Query: Write down pIC50 measured for item CNC(=O)c1ccc(-c2ccc(OC(C)C)c(C(=O)NC3(CO)CCc4[nH]c5c(Cl)cccc5c4C3)c2)cc1Cl (stereo not shown)
Result: 6.70
